- Measurement target: Ras-related protein Rab-7a (Canis lupus familiaris)
- Sequence (P18067 whole entry): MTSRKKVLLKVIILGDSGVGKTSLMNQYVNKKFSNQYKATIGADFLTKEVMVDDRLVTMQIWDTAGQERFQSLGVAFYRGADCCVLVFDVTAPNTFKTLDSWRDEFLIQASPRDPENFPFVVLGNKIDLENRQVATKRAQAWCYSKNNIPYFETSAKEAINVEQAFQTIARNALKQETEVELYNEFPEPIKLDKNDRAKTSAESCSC
- Experimental details: Rab7 GTP binding inhibitors, further analogs, SAR follow-up, biochemical, additional analogs, wildtype, multiplex bead flow cytometry (AID 2036)
Hi there, I'd appreciate the recorded EC50 for every entry that follows.
Field note: include the unit after the figure.

Q) Which EC50 is reported for this compound? O=C1N=c2ccc(Br)cc2=C1c1[nH]c2ccccc2c1NO
A) 30 µM

Q) Which EC50 is reported for this compound? O=C1Nc2ccc(Br)cc2C1=C1Nc2ccccc2C1=O
A) 30 µM

Q) Which EC50 is reported for this compound? O=C1Nc2ccccc2/C1=C1/Nc2ccccc2C1=O
A) 30 µM

Q) Which EC50 is reported for this compound? O=C1N=c2ccccc2=C1c1[nH]c2ccccc2c1NO
A) 30 µM

Q) Which EC50 is reported for this compound? O=C1N=c2c(Cl)cccc2=C1c1[nH]c2ccccc2c1NO
A) 30 µM

Q) Which EC50 is reported for this compound? C[C@@H](C(=O)O)c1cccc(Oc2ccccc2)c1
A) 30 µM

Q) Which EC50 is reported for this compound? O=C1Nc2c(Cl)cccc2C1=C1Nc2ccccc2C1=O
A) 0.024 µM

Q) Which EC50 is reported for this compound? O=C1NC(=O)/C(=C2/C(=O)Nc3ccccc32)N1
A) 30 µM

Q) Which EC50 is reported for this compound? O=C1NC(=S)N/C1=C1\C(=O)Nc2ccccc21
A) 13.4 µM

Q) Which EC50 is reported for this compound? O=C1Nc2c(F)cccc2C1=C1Nc2ccccc2C1=O
A) 23.8 µM

Q) Which EC50 is reported for this compound? O=C1Nc2c(Br)cccc2C1=C1Nc2ccccc2C1=O
A) 30 µM

Q) Which EC50 is reported for this compound? O=C1N=c2c(Br)cccc2=C1c1[nH]c2ccccc2c1NO
A) 30 µM

Q) Which EC50 is reported for this compound? O=C1N=c2c(F)cccc2=C1c1[nH]c2ccccc2c1NO
A) 30 µM
